Values were extracted from PubChem BioAssay (NCATS).

Assay: qHTS assay for small molecule agonists of retinoid X receptor alpha signaling (AID 588544)
Details: HEK293T RXRa-UAS-bla, beta-lactamase reporter, 18 h; 530 nm emission
Inconclusive results are not listed.
Measured parameter: max response (%)
Write the value in % as a bare number.

* NCC(O)c1ccc(O)cc1 (stereo not given) | 14.7
* Nc1ccncc1 | -10.7

Consider the molecule CNCC(O)c1ccc(O)cc1 (stereo not given) and give its measured max response.
4.18

// same read-out, input: CCn1cc(C(=O)O)c(=O)c2ccc(C)nc21
24.5

// same read-out, input: CC(C)(C)CC(C)(C)c1ccc(O)cc1
-53.5
